Test system: HCC1143
run_description: normalised response (% of control), CellTiter-Glo; higher = more viable cells (100 = DMSO, 0 = benzethonium chloride kill control)
experimental_context: incubation time: 72 h
endpoint_label: normalised response (%)
Quick note: give the figure in %, leave out the unit.

For record CS(=O)(=O)N1CCN(Cc2cc3nc(-c4cccc5[nH]ncc45)nc(N4CCOCC4)c3s2)CC1 [Pictilisib] (10000 nM) the listed normalised response is 26

Input O=C(NC[C@H](O)CO)c1ccncc1Nc1ccc(I)cc1F [Pimasertib] (10000 nM) . Output normalised response: 79.1

Sample CCC/C=C/C=C/C(=O)O[C@H]1/C(=C/C(=O)OC)C[C@H]2C[C@H]([C@@H](C)O)OC(=O)C[C@H](O)C[C@@H]3C[C@H](OC(C)=O)C(C)(C)[C@](O)(C[C@@H]4C/C(=C/C(=O)OC)C[C@H](/C=C/C(C)(C)[C@]1(O)O2)O4)O3 [Bryostatin 1] (100 nM) ; normalised response observed: 94.1

// normalised response lookup, compound = CC[C@@]1(O)C(=O)OCc2c1cc1n(c2=O)Cc2cc3c(CN(C)C)c(O)ccc3nc2-1 [Topotecan] (10000 nM) , result: 26.9

The measured normalised response associated with Nc1ccccc1NC(=O)c1ccc(CNc2nccc(-c3cccnc3)n2)cc1 [Mocetinostat] (10000 nM) reads 24.9

Lab note: measured normalised response of CCCCC/C=C/C=C1/C(=O)C=C[C@@H]1C/C=C\CCCC(=O)O [15D-PGJ2] (800 nM) was 107

Quick note, normalised response for c1cc(CN2CCCNCCNCCCNCC2)ccc1CN1CCCNCCNCCCNCC1 [Plerixafor] (10000 nM) landed at 102

# normalised response of Cc1c(Cn2c(C)nc3c(C(=O)O)cc(N4CCOCC4)cc32)cccc1C(F)(F)F (10000 nM) = 106
